assay: self-splicing fitness, log relative to wild type (ln ratio); higher = more splicing; Tetrahymena group I intron in knt gene, E. coli kanamycin selection, DiMSum; sequences stand for … in CUCUCU…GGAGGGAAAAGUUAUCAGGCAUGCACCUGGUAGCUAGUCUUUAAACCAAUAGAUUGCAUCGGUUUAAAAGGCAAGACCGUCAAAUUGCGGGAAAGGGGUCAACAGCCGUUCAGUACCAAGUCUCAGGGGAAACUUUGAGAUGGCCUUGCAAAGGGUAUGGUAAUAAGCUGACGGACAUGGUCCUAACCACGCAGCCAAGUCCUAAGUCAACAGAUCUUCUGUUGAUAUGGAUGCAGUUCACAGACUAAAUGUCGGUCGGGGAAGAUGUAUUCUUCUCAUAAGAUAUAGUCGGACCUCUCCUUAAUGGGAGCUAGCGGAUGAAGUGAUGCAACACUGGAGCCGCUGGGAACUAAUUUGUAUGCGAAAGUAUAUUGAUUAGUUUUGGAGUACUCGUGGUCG; conditions: 37 °C;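 note: selection with 25 µg/mL kanamycin versus none on LB agar overnight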
We use -1 as the dividing line for self-splicing fitness (ln): on or above the line is y, below is n.

// known answers, use as guide
[[record]]
construct_sequence = "GUGGAGCAAUAUUACGUUCA"
qualitative_label = "y"

[[record]]
construct_sequence = "GUGCAGCAAUAUUACGGAGA"
qualitative_label = "n"

[[record]]
construct_sequence = "UCACAGCAAUAUUACGAUUG"
qualitative_label = "n"

[[record]]
construct_sequence = "UAGGAGCAAUAUUACGCUAA"
qualitative_label = "n"


Kindly consider the entry below.
Prompt line: Check the entry CCUUAGCAAUAUUACGUGUC : does self-splicing fitness (ln) equal or exceed -1?
Response line: y
